Exercise: for every item that follows, state its recorded gap junctional intercellular communication.
- System: WB-F344
- ASSAY NOTES: gap junctional intercellular communication (dye spread) relative to vehicle control (fraction of control); higher = more gap junction communication (less inhibition)
- CONDITION DESCRIPTION: pretreatment: U0126+GJIC dysreg.
One number for each entry.

In the examples that follow, each entry is paired with its recorded gap junctional intercellular communication.
O=C(O)C(F)(F)C(F)(F)C(F)(F)C(F)(F)C(F)(F)C(F)(F)C(F)(F)F [Perfluorooctanoic acid] (compound abbreviation / co-treatment: PFOA, exposure (dose, time): 80 µM, 10 min)    0.44
O=S(=O)(O)C(F)(F)C(F)(F)C(F)(F)C(F)(F)C(F)(F)C(F)(F)C(F)(F)C(F)(F)F [Perfluorooctanesulfonic acid] (compound abbreviation / co-treatment: PFOSA, exposure (dose, time): 40 µM, 20 min)    0.289

Required: gap junctional intercellular communication, one value per compound below.
1. CC(C)C[C@H](NC(=O)[C@H](CC(C)C)NC(=O)[C@H](Cc1ccccc1)NC(=O)[C@@H](N)CO)C(=O)N[C@@H](CCCN=C(N)N)C(=O)N[C@@H](CC(N)=O)C(=O)O [Thrombin receptor activator peptide-6] (compound abbreviation / co-treatment: TRAP-6, exposure (dose, time): 50 µM, 30 min)
2. Clc1ccc(C(c2ccccc2Cl)C(Cl)(Cl)Cl)cc1 (centres undefined) [1,1,1-Trichloro-2-(2-chlorophenyl)-2-(4-chlorophenyl)ethane] (compound abbreviation / co-treatment: DDT, exposure (dose, time): 30 µM, 20 min)

[1.05, 0.337]

----------
- Test system: WB-F344
- ASSAY NOTES: gap junctional intercellular communication (dye spread) relative to vehicle control (fraction of control); higher = more gap junction communication (less inhibition)
- CONDITION DESCRIPTION: pretreatment: D609+GJIC dysreg.
QUANTITY MEASURED: gap junctional intercellular communication
Answers are plain numbers.

In the examples that follow, each entry is paired with its recorded gap junctional intercellular communication.
c1ccc2c(c1)-c1cccc3cccc-2c13 [Fluoranthene] (compound abbreviation / co-treatment: Fla, exposure (dose, time): 70 µM, 10 min)    0.718
Cl[C@H]1[C@H](Cl)[C@@H](Cl)[C@@H](Cl)[C@H](Cl)[C@H]1Cl [Lindane] (compound abbreviation / co-treatment: Lindane, exposure (dose, time): 60 µM, 25 min)    0.335

Hello, please tell me recorded gap junctional intercellular communication for this one: Cc1cccc2cc3ccccc3cc12 [1-Methylanthracene] (compound abbreviation / co-treatment: 1-MeA, exposure (dose, time): 70 µM, 10 min) 0.872

----------
- System: WB-F344
- ASSAY NOTES: gap junctional intercellular communication (dye spread) relative to vehicle control (fraction of control); higher = more gap junction communication (less inhibition)
- CONDITION DESCRIPTION: pretreatment: D609+GJIC dysreg.
Lab note: anything with gap junctional intercellular communication at or over 0.7 counts as class 1; the rest go in class 0.

Solved entries (count: 5):
O=C(OOC(=O)c1ccccc1)c1ccccc1 [Benzoylperoxide] (compound abbreviation / co-treatment: BzOOH, exposure (dose, time): 200 µM, 15 min)    class 0
O=C(O)C(F)(F)C(F)(F)C(F)(F)C(F)(F)C(F)(F)C(F)(F)C(F)(F)F [Perfluorooctanoic acid] (compound abbreviation / co-treatment: PFOA, exposure (dose, time): 80 µM, 10 min)    class 0
Clc1ccc(C(c2ccccc2Cl)C(Cl)(Cl)Cl)cc1 (centres undefined) [1,1,1-Trichloro-2-(2-chlorophenyl)-2-(4-chlorophenyl)ethane] (compound abbreviation / co-treatment: DDT, exposure (dose, time): 30 µM, 20 min)    class 1
c1ccc2c(c1)Cc1ccccc1-2 [Fluoren] (compound abbreviation / co-treatment: Flu, exposure (dose, time): 100 µM, 10 min)    class 1
Oc1c(Cl)c(Cl)c(Cl)c(Cl)c1Cl [Pentachlorophenol] (compound abbreviation / co-treatment: PCP, exposure (dose, time): 50 µM, 10 min)    class 0

Tell me whether gap junctional intercellular communication is at least 0.7 here: c1cc2ccc3cccc4ccc(c1)c2c34 [Pyrene] (compound abbreviation / co-treatment: Pyr, exposure (dose, time): 70 µM, 10 min) class 1

Tell me whether gap junctional intercellular communication is at least 0.7 here: CCc1cccc(CC)c1N(COC)C(=O)CCl [Alachlor] (compound abbreviation / co-treatment: Alachlor, exposure (dose, time): 185 µM, 25 min) class 0

Tell me whether gap junctional intercellular communication is at least 0.7 here: O=C(O)C(F)(F)C(F)(F)C(F)(F)C(F)(F)C(F)(F)C(F)(F)C(F)(F)C(F)(F)C(F)(F)F [Perfluorodecanoic acid] (compound abbreviation / co-treatment: PFDA, exposure (dose, time): 50 µM, 20 min) class 0

Tell me whether gap junctional intercellular communication is at least 0.7 here: Cc1ccc2ccc3cccc4ccc1c2c34 [1-Methylpyrene] (compound abbreviation / co-treatment: 1-MePyr, exposure (dose, time): 70 µM, 10 min) class 1

----------
- System: WB-F344
- ASSAY NOTES: gap junctional intercellular communication (dye spread) relative to vehicle control (fraction of control); higher = more gap junction communication (less inhibition)
- CONDITION DESCRIPTION: pretreatment: RES+GJIC dysreg.
Lab note: anything with gap junctional intercellular communication at or over 0.8 counts as Met; the rest go in Not met.

c1ccc2c(c1)Cc1ccccc1-2 [Fluoren] (compound abbreviation / co-treatment: Flu, exposure (dose, time): 100 µM, 10 min)    Met
Cc1cccc2c1Cc1ccccc1-2 [1-Methylfluoren] (compound abbreviation / co-treatment: 1-MeFlu, exposure (dose, time): 70 µM, 10 min)    Met

Note: attention shifts to another entry.
Tell me whether gap junctional intercellular communication is at least 0.8 here: O=C(O)C(F)(F)C(F)(F)C(F)(F)C(F)(F)C(F)(F)C(F)(F)C(F)(F)C(F)(F)C(F)(F)F [Perfluorodecanoic acid] (compound abbreviation / co-treatment: PFDA, exposure (dose, time): 50 µM, 20 min) Not met

----------
- System: WB-F344
- ASSAY NOTES: gap junctional intercellular communication (dye spread) relative to vehicle control (fraction of control); higher = more gap junction communication (less inhibition)
- CONDITION DESCRIPTION: pretreatment: U0126+GJIC dysreg.
Exercise: for every item that follows, state its recorded gap junctional intercellular communication.

Cc1cccc2cc3ccccc3cc12 [1-Methylanthracene] (compound abbreviation / co-treatment: 1-MeA, exposure (dose, time): 70 µM, 10 min)    0.262
c1ccc2c(c1)-c1cccc3cccc-2c13 [Fluoranthene] (compound abbreviation / co-treatment: Fla, exposure (dose, time): 70 µM, 10 min)    0.285
CCCCCCCCCCCC(=O)OCC(O)CO (centres undefined) [1-Monolaurin] (compound abbreviation / co-treatment: Lau, exposure (dose, time): 150 µM, 10 min)    0.234
c1cc2ccc3cccc4ccc(c1)c2c34 [Pyrene] (compound abbreviation / co-treatment: Pyr, exposure (dose, time): 70 µM, 10 min)    0.376

Required: gap junctional intercellular communication, one value per compound below.
1. Clc1cc(Cl)c(-c2cc(Cl)c(Cl)cc2Cl)cc1Cl [2,2',4,4',5,5'-Hexachlorobiphenyl] (compound abbreviation / co-treatment: PCB 153, exposure (dose, time): 50 µM, 30 min)
2. CC(C)(OOC(C)(C)c1ccccc1)c1ccccc1 [Dicumylperoxide] (compound abbreviation / co-treatment: DiCuOOH, exposure (dose, time): 50 µM, 15 min)
3. Cc1ccc2ccc3cccc4ccc1c2c34 [1-Methylpyrene] (compound abbreviation / co-treatment: 1-MePyr, exposure (dose, time): 70 µM, 10 min)
4. CCCCCCCCCCCCCC(=O)O[C@@H]1[C@@H](C)[C@@]2(O)[C@@H](C=C(CO)C[C@]3(O)C(=O)C(C)=C[C@@H]23)[C@@H]2C(C)(C)[C@]12OC(C)=O [12-O-tetradecanoylphorbol-13-acetate] (compound abbreviation / co-treatment: TPA, exposure (dose, time): 10 nM, 30 min)
5. CCc1cccc(CC)c1N(COC)C(=O)CCl [Alachlor] (compound abbreviation / co-treatment: Alachlor, exposure (dose, time): 185 µM, 25 min)

1: 0.278; 2: 0.324; 3: 0.345; 4: 0.967; 5: 0.356

----------
Exercise: for every item that follows, state its recorded gap junctional intercellular communication.
- Test system: WB-F344
- ASSAY NOTES: gap junctional intercellular communication (dye spread) relative to vehicle control (fraction of control); higher = more gap junction communication (less inhibition)
- CONDITION DESCRIPTION: pretreatment: U0126+GJIC dysreg.
One number for each entry.

Oc1c(Cl)c(Cl)c(Cl)c(Cl)c1Cl [Pentachlorophenol] (compound abbreviation / co-treatment: PCP, exposure (dose, time): 50 µM, 10 min)    0.336
O=C(O)C(F)(F)C(F)(F)C(F)(F)C(F)(F)C(F)(F)C(F)(F)C(F)(F)C(F)(F)C(F)(F)F [Perfluorodecanoic acid] (compound abbreviation / co-treatment: PFDA, exposure (dose, time): 50 µM, 20 min)    0.239
O=C(OOC(=O)c1ccccc1)c1ccccc1 [Benzoylperoxide] (compound abbreviation / co-treatment: BzOOH, exposure (dose, time): 200 µM, 15 min)    0.33

Required: gap junctional intercellular communication, one value per molecule below.
1. c1ccc2c(c1)Cc1ccccc1-2 [Fluoren] (compound abbreviation / co-treatment: Flu, exposure (dose, time): 100 µM, 10 min)
2. Cl[C@H]1[C@H](Cl)[C@@H](Cl)[C@@H](Cl)[C@H](Cl)[C@H]1Cl [Lindane] (compound abbreviation / co-treatment: Lindane, exposure (dose, time): 60 µM, 25 min)
3. Cc1cccc2c1Cc1ccccc1-2 [1-Methylfluoren] (compound abbreviation / co-treatment: 1-MeFlu, exposure (dose, time): 70 µM, 10 min)
4. Cc1nc2sccn2c(=O)c1CCN1CCC(=C(c2ccccc2)c2ccc(F)cc2)CC1 (compound abbreviation / co-treatment: R59022, exposure (dose, time): 30-50 µM, 10 min)

0.309
0.695
0.318
0.641

FYI, the data here is from the supplement of paper PMC4449167.
